assay system: recombinant human PAD4 (human, UniProt Q9UM07 1-663)
Sequence (Q9UM07 whole entry): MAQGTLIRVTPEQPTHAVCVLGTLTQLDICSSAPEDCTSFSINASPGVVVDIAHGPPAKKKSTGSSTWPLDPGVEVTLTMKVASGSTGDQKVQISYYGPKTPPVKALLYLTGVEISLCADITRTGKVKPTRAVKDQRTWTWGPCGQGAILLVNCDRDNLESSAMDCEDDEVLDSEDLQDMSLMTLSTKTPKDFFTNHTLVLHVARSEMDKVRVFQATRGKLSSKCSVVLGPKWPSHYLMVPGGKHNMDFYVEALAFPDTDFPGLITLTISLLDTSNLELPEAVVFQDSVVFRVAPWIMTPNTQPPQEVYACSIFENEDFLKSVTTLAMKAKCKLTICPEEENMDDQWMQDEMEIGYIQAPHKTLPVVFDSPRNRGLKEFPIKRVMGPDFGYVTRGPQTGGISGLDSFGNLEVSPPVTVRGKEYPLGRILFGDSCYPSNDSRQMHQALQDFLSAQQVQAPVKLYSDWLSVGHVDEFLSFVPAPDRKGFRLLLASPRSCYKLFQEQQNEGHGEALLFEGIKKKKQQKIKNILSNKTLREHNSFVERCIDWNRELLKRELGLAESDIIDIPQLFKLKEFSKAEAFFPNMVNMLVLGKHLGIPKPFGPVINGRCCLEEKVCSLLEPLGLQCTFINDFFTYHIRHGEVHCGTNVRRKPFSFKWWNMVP
procedure summary: cell-based or functional assay
Numbered stars: 1 amine (or outer) side, 2 acyl side, 3 side chain; on linkers, the order of the positions; unused ones are H or OH. Square brackets hold non-standard residues; d marks the D form. Orn(CA) = ornithine chloroamidine, O(CA), N=C(CCl)NCCC[C@H](N[*:1])C(=O)[*:2]; Orn(fluoroacetimidoyl) = N=C(CF)NCCC[C@H](N)C(=O)O
observable: conversion of 0708-30 by PAD4, 10 µM inhibitor (%)

binder	result number
Ac-FFDSHKFD[Orn(CA)]DFIYSD-NH2 (SMILES CC[C@H](C)[C@H](NC(=O)[C@H](Cc1ccccc1)NC(=O)[C@H](CC(=O)O)NC(=O)[C@H](CCCNC(=N)CCl)NC(=O)[C@H](CC(=O)O)NC(=O)[C@H](Cc1ccccc1)NC(=O)[C@H](CCCCN)NC(=O)[C@H](Cc1c[nH]cn1)NC(=O)[C@H](CO)NC(=O)[C@H](CC(=O)O)NC(=O)[C@H](Cc1ccccc1)NC(=O)[C@H](Cc1ccccc1)NC(C)=O)C(=O)N[C@@H](Cc1ccc(O)cc1)C(=O)N[C@@H](CO)C(=O)N[C@@H](CC(=O)O)C(N)=O) [0741-03CA]	62
Ac-FFDSHKLH[Orn(fluoroacetimidoyl)]EWMWSD-NH2 (SMILES CSCC[C@H](NC(=O)[C@H](Cc1c[nH]c2ccccc12)NC(=O)[C@H](CCC(=O)O)NC(=O)[C@H](CCCNC(=N)CF)NC(=O)[C@H](Cc1c[nH]cn1)NC(=O)[C@H](CC(C)C)NC(=O)[C@H](CCCCN)NC(=O)[C@H](Cc1c[nH]cn1)NC(=O)[C@H](CO)NC(=O)[C@H](CC(=O)O)NC(=O)[C@H](Cc1ccccc1)NC(=O)[C@H](Cc1ccccc1)NC(C)=O)C(=O)N[C@@H](Cc1c[nH]c2ccccc12)C(=O)N[C@@H](CO)C(=O)N[C@@H](CC(=O)O)C(N)=O) [0741-04FA]	64
Ac-DSHKFD[Orn(fluoroacetimidoyl)]DFIYSD-NH2 (SMILES CC[C@H](C)[C@H](NC(=O)[C@H](Cc1ccccc1)NC(=O)[C@H](CC(=O)O)NC(=O)[C@H](CCCNC(=N)CF)NC(=O)[C@H](CC(=O)O)NC(=O)[C@H](Cc1ccccc1)NC(=O)[C@H](CCCCN)NC(=O)[C@H](Cc1c[nH]cn1)NC(=O)[C@H](CO)NC(=O)[C@H](CC(=O)O)NC(C)=O)C(=O)N[C@@H](Cc1ccc(O)cc1)C(=O)N[C@@H](CO)C(=O)N[C@@H](CC(=O)O)C(N)=O) [0741-05FA]	55
Ac-FFDSHKFD[Orn(fluoroacetimidoyl)]DFIYSD-NH2 (SMILES CC[C@H](C)[C@H](NC(=O)[C@H](Cc1ccccc1)NC(=O)[C@H](CC(=O)O)NC(=O)[C@H](CCCNC(=N)CF)NC(=O)[C@H](CC(=O)O)NC(=O)[C@H](Cc1ccccc1)NC(=O)[C@H](CCCCN)NC(=O)[C@H](Cc1c[nH]cn1)NC(=O)[C@H](CO)NC(=O)[C@H](CC(=O)O)NC(=O)[C@H](Cc1ccccc1)NC(=O)[C@H](Cc1ccccc1)NC(C)=O)C(=O)N[C@@H](Cc1ccc(O)cc1)C(=O)N[C@@H](CO)C(=O)N[C@@H](CC(=O)O)C(N)=O) [0741-03FA]	45
